# System: KRas G12C mutant
# EXPERIMENT_DESCRIPTION: Ras GTP Binding Domain Inhibition Assay (Ras Superfamily Assay)
# RUN_CONDITIONS: 20 μM compound, without SOS
Can you tell me KRas G12C mutant: % inh. for the items I'm about to list?

KRas G12C mutant KRas G12C mutant: % inh. of COc1cccc(-c2cn3nc(-c4nccn4C)nc(N[C@H]4C[C@H](OC)C4)c3c2-c2ccn(C)n2)c1F [Compound 47] is 0 (0 = 0% inhibition)

KRas G12C mutant KRas G12C mutant: % inh. of COCC1CCN(c2nc(-c3nccn3C)nn3cc(-c4ccn(C(C)C)n4)c(C)c23)C1 (racemic) [Compound 2] is 0 (0 = 0% inhibition)

KRas G12C mutant KRas G12C mutant: % inh. of COC[C@@H]1CC[C@@H]1CNc1nc(-c2nccn2C)nn2cc(-c3ccn(C(C)C)n3)c(C)c12 (racemic) [Compound 3] is 0 (0 = 0% inhibition)

---

# Test system: KRas G12D mutant
# EXPERIMENT_DESCRIPTION: Ras GTP Binding Domain Inhibition Assay (Ras Superfamily Assay)
# RUN_CONDITIONS: 20 μM compound, with SOS
PARAMETER_MEASURED: KRas G12D mutant + SOS: % inh.

Example molecules with recorded KRas G12D mutant + SOS: % inh.:
- MOLECULE: "COCCO[C@H]1C[C@H](Nc2nc(-c3nccn3C)nn3cc(-c4ccnc(OC)c4)c(C)c23)C1"
  TEST_VALUE: "0 (0 = 0% inhibition)"
- MOLECULE: "COc1cc(-c2cn3nc(-c4nccn4C)nc(N[C@H]4C[C@H](OC)C4)c3c2C)ccn1"
  TEST_VALUE: "A (A = 1-25% inhibition)"
- MOLECULE: "COc1cccc(-c2cn3nc(-c4nccn4C)nc(N[C@@H]4CC[C@@H](OC)C4)c3c2-c2ccccn2)c1F (racemic)"
  TEST_VALUE: "A (A = 1-25% inhibition)"
- MOLECULE: "COCCCNc1nc(-c2nccn2C)nn2cc(-c3cccc(OC)c3Cl)c(-c3ccccc3)c12"
  TEST_VALUE: "A (A = 1-25% inhibition)"
- MOLECULE: "Cc1c(-c2ccn(C)n2)cn2nc(-c3nccn3C)nc(Nc3cnccn3)c12"
  TEST_VALUE: "A (A = 1-25% inhibition)"

Consider COc1cccc(Nc2nc(-c3nccn3C)nn3cc(-c4ccn(C(C)C)n4)c(C)c23)n1 . Its measured KRas G12D mutant + SOS: % inh. is 0 (0 = 0% inhibition)

---

# TARGET: Rheb (Homo sapiens, UniProt Q15382)
# Construct: made in house
# Sequence (Q15382 whole entry): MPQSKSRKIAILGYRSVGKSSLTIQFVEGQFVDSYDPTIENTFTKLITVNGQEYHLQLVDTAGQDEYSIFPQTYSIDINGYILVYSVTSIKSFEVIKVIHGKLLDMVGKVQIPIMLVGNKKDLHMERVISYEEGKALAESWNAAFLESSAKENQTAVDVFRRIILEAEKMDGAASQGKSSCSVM
# EXPERIMENT_DESCRIPTION: Rheb GTP Binding Domain Inhibition Assay
# RUN_CONDITIONS: read-out: Rheb: % inh.
PARAMETER_MEASURED: inhibition at 20 µM

Consider COc1cccc(-c2cn3nc(-c4nccn4C)nc(N[C@@H]4CC[C@@H](OC)C4)c3c2-c2ccccc2)c1F (racemic) [Compound 43] . Its measured inhibition at 20 µM is 26 to 49%

Consider Cc1c(-c2ccn(C(C)C)n2)cn2nc(-c3nccn3C)nc(Nc3ncccn3)c12 [Compound 54] . Its measured inhibition at 20 µM is 76 to 100%

Consider COCCO[C@H]1C[C@H](Nc2nc(-c3nccn3C)nn3cc(-c4ccn(C(C)C)n4)c(C)c23)C1 [Compound 92] . Its measured inhibition at 20 µM is 0%

Consider COc1cc(Nc2nc(-c3nccn3C)nn3cc(-c4ccn(C(C)C)n4)c(C)c23)ncn1 [Compound 6] . Its measured inhibition at 20 µM is 76 to 100%

---

# System: KRas wild type
# EXPERIMENT_DESCRIPTION: Ras GTP Binding Domain Inhibition Assay (Ras Superfamily Assay)
# RUN_CONDITIONS: 20 μM compound, without SOS
PARAMETER_MEASURED: KRas wild type: % inh.

Example compounds with recorded KRas wild type: % inh.:
- COMPOUND: "COc1cccc(-c2cn3nc(-c4nccn4C)nc(N[C@@H]4CC[C@@H](OC)C4)c3c2-c2ccccn2)c1F (racemic) [Compound 46]"
  TEST_VALUE: "A (A = 1-25% inhibition)"
- COMPOUND: "CO[C@H]1CC[C@@H](Nc2nc(-c3nccn3C)nn3cc(-c4ccn(C)n4)c(C)c23)C1 (racemic) [Compound 133]"
  TEST_VALUE: "A (A = 1-25% inhibition)"
- COMPOUND: "COc1cc(-c2cn3nc(-c4nccn4C)nc(N[C@@H]4CC[C@H](OC)C4)c3c2C)ccn1 (racemic) [Compound 164]"
  TEST_VALUE: "A (A = 1-25% inhibition)"
- COMPOUND: "CO[C@H]1CC[C@@H](Nc2nc(-c3nccn3C)nn3cc(-c4ccn(C(C)C)n4)c(C(C)C)c23)C1 (racemic) [Compound 36]"
  TEST_VALUE: "0 (0 = 0% inhibition)"

Consider CO[C@H]1CC[C@H](Nc2nc(-c3nccn3C)nn3cc(-c4ccn(C)n4)c(C(=O)NCC(F)(F)F)c23)C1 (racemic) [Compound 181] . Its measured KRas wild type: % inh. is A (A = 1-25% inhibition)

---

# TARGET: Rac-1 (Homo sapiens, UniProt P63000)
# Construct: made in house
# EXPERIMENT_DESCRIPTION: Ras GTP Binding Domain Inhibition Assay (Ras Superfamily Assay)
# RUN_CONDITIONS: read-out: Rac-1: % inh.
PARAMETER_MEASURED: inhibition at 20 µM

Rac-1 (Homo sapiens, UniProt P63000) inhibition at 20 µM of COCC1CCN(c2nc(-c3ccccn3)nn3cc(-c4ccn(C(C)C)n4)c(C)c23)C1 (racemic) is 1 to 25%

Rac-1 (Homo sapiens, UniProt P63000) inhibition at 20 µM of CO[C@H]1CC[C@H](Nc2nc(-c3nccn3C)nn3cc(-c4ccn(C)n4)c(C(=O)NCCN4CCOCC4)c23)C1 (racemic) is 0%

Rac-1 (Homo sapiens, UniProt P63000) inhibition at 20 µM of COc1cccc(Nc2nc(-c3nccn3C)nn3ccc(-c4ccccc4)c23)n1 is 1 to 25%

Rac-1 (Homo sapiens, UniProt P63000) inhibition at 20 µM of COc1ccnc(Nc2nc(-c3nccn3C)nn3cc(-c4ccn(CCNC(=O)CCCC[C@H]5SC[C@H]6NC(=O)N[C@H]65)n4)c(C)c23)c1 is 76 to 100%

Rac-1 (Homo sapiens, UniProt P63000) inhibition at 20 µM of CO[C@H]1CC[C@@H](Nc2nc(-c3nccn3C)nn3cc(-c4ccncc4)c(-c4ccccc4)c23)C1 (racemic) is 26 to 49%

Rac-1 (Homo sapiens, UniProt P63000) inhibition at 20 µM of COc1cc(Nc2nc(-c3nccn3C)nn3cc(-c4cccnc4)c(C)c23)ncn1 is 50 to 75%

Rac-1 (Homo sapiens, UniProt P63000) inhibition at 20 µM of CO[C@H]1C[C@H](Nc2nc(-c3nccn3C)nn3cc(-c4ccn(C)n4)c(C4CC4)c23)C1 is 1 to 25%

---

# System: KRas wild type
# EXPERIMENT_DESCRIPTION: Ras GTP Binding Domain Inhibition Assay (Ras Superfamily Assay)
# RUN_CONDITIONS: 20 μM compound, without SOS
PARAMETER_MEASURED: KRas wild type: % inh.

Example compounds with recorded KRas wild type: % inh.:
- COMPOUND: "COc1cc(Nc2nc(-c3nccn3C)nn3cc(-c4ccn(C(C)C)n4)c(C)c23)ccn1"
  PARAMETER_MEASURED: "KRas wild type: % inh."
  TEST_VALUE: "0 (0 = 0% inhibition)"
- COMPOUND: "COC(=O)c1c(-c2ccn(C)n2)cn2nc(-c3nccn3C)nc(N[C@H]3CC[C@H](OC)C3)c12 (racemic)"
  PARAMETER_MEASURED: "KRas wild type: % inh."
  TEST_VALUE: "A (A = 1-25% inhibition)"
- COMPOUND: "COc1cccc(-c2cn3nc(-c4nccn4C)nc(O)c3c2-c2ccccc2)c1Cl"
  PARAMETER_MEASURED: "KRas wild type: % inh."
  TEST_VALUE: "A (A = 1-25% inhibition)"
- COMPOUND: "COc1cnc(Nc2nc(-c3nccn3C)nn3cc(-c4ccn(C)n4)c(C)c23)nc1.Cl"
  PARAMETER_MEASURED: "KRas wild type: % inh."
  TEST_VALUE: "A (A = 1-25% inhibition)"

For the next question, use this compound.
KRas wild type KRas wild type: % inh. of COC[C@@H]1CC[C@@H]1CNc1nc(-c2nccn2C)nn2cc(-c3ccn(C(C)C)n3)c(-c3ccccc3)c12 (racemic) is A (A = 1-25% inhibition)
